system_name: human factor XIa (Homo sapiens)
Construct: purchased Kordia
procedure_details: Measurement of FXIa inhibition (fluorogenic peptide substrate Boc-Glu(OBzl)-Ala-Arg-AMC)
Assay type: biochemical
setup_conditions: factor XIa from Kordia, 15 min preincubation, 30 min at 22° C., fluorescence; some as mean values from multiple determinations
Measured IC50, listed per entry for reference.
property_measured: IC50 (nM)

CC1Cc2ccc(Cl)cc2-c2cc(=O)n(C(C[C@@H]3CCCCO3)C(=O)Nc3ccc(C(N)=O)c(F)c3)cc2CO1 (single isomer, unassigned) [Example 1] ... 11
C[C@@H]1Cc2ccc(Cl)cc2-c2cc(=O)n([C@@H](CCOC(C)(C)C)C(=O)Nc3ccn4ncnc4c3)cc2CO1 (single isomer, unassigned) [Example 26] ... 28
C[C@@H]1Cc2ccc(Cl)cc2-c2cc(=O)n([C@@H](C[C@H](C)OC(F)F)C(=O)Nc3ccc(C(N)=O)cc3)cc2CO1 (single isomer, unassigned) [Example 19] ... 3.6
NC(=O)c1ccc(NC(=O)C(C[C@@H]2COCCO2)n2cc3c(cc2=O)-c2cc(Cl)ccc2CC(C(F)(F)F)OC3)cc1F (mixture of isomers) [Example 56] ... 7.6
CC[C@@H](C(=O)Nc1ccc(C(N)=O)cc1)n1cc2c(cc1=O)-c1c(ccc(Cl)c1F)C[C@@H](C(F)(F)F)OC2 (single isomer, unassigned) [Example 68] ... 6.9
CC[C@@H](C(=O)Nc1ccc(C(N)=O)cc1)n1cc2c(cc1=O)-c1c(ccc(Cl)c1F)C[C@@H](C)O[C@H]2C (single isomer, unassigned) [Example 75] ... 5.9
CC[C@@H](C(=O)Nc1ccc(C(N)=O)c(F)c1)n1cc2c(cc1=O)-c1cc(Cl)ccc1C[C@@H](C(F)F)OC2 (single isomer, unassigned) [Example 47] ... 56
CC(C)[C@@H]1Cc2ccc(Cl)cc2-c2cc(=O)n([C@@H](C[C@@H]3COCCO3)C(=O)Nc3ccc4nn(C)nc4c3)cc2CO1 (single isomer, unassigned) [Example 45] ... 17
C[C@@H]1Cc2ccc(Cl)cc2-c2cc(=O)n([C@@H](C[C@@H]3CCCCO3)C(=O)Nc3ccc(C(N)=O)cc3)cc2CO1 (single isomer, unassigned) [Example 6] ... 1.4
C[C@@H]1Cc2ccc(Cl)cc2-c2cc(=O)n(C(CCOC(F)F)C(=O)Nc3ccc(C(N)=O)cc3)cc2CO1 (mixture of isomers) [Example 16] ... 3.5
NC(=O)c1ccc(NC(=O)[C@H](C[C@@H]2CCCCO2)n2cc3c(cc2=O)-c2cc(Cl)ccc2C[C@@H](CO)OC3)cc1F (single isomer, unassigned) [Example 33] ... 9.1

* * *

system_name: human plasma kallikrein (Homo sapiens)
procedure_details: Determination of the plasma kallikrein activity (fluorogenic peptide substrate H-Pro-Phe-Arg-AMC)
setup_conditions: plasma kallikrein from Kordia, 15 min preincubation, 30 min at 22° C., fluorescence; some as mean values from multiple determinations
pIC50: −log10 of the molar value.
property_measured: pIC50

CO[C@@H](C)C[C@@H](C(=O)Nc1ccc(C(N)=O)cc1)n1cc2c(cc1=O)-c1c(ccc(Cl)c1Cl)C[C@@H](C(F)(F)F)OC2 (single isomer, unassigned) ... 6.55
C[C@@H]1Cc2ccc(Cl)cc2-c2cc(=O)n([C@@H](C)C(=O)Nc3ccc(C(N)=O)cc3)cc2CO1 (single isomer, unassigned) ... 6.72
NC(=O)c1ccc(NC(=O)C(C[C@@H]2CCCCO2)n2cc3c(cc2=O)-c2cc(Cl)ccc2CC(CO)OC3)cc1 (mixture of isomers) ... 6.31
C[C@@H]1Cc2ccc(Cl)cc2-c2cc(=O)n([C@@H](CCOC(C)(C)C)C(=O)Nc3ccc(C(N)=O)cc3)cc2CO1 (single isomer, unassigned) ... 6.96
CC1Cc2ccc(Cl)cc2-c2cc(=O)n(C(CCOC(C)(C)C)C(=O)Nc3ccc(C(N)=O)c(F)c3)cc2CO1 (mixture of isomers) ... 6.08

* * *

system_name: human plasma kallikrein (Homo sapiens, UniProt P03952)
Sequence (P03952 391-638 limits assumed): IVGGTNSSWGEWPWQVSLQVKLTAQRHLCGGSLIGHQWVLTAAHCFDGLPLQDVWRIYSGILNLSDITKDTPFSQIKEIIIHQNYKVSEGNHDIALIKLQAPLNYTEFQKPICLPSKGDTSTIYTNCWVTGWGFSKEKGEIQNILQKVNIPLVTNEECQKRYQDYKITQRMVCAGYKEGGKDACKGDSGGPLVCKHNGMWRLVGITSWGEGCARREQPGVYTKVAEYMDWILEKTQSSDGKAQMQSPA
Sequence (P03952 20-390 partner limits assumed): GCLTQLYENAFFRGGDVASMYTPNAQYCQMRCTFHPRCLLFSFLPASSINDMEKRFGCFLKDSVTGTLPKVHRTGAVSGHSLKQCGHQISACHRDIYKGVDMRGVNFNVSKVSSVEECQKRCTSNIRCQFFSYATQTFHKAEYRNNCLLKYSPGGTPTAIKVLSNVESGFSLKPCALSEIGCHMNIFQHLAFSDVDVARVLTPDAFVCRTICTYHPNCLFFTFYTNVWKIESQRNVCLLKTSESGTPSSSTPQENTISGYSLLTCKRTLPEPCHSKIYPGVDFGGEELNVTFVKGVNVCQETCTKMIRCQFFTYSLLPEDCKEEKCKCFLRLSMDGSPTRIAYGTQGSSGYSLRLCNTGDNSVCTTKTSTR
procedure_details: Determination of the plasma kallikrein activity (fluorogenic peptide substrate H-Pro-Phe-Arg-AMC)
setup_conditions: plasma kallikrein from Kordia, 15 min preincubation, 30 min at 22° C., fluorescence; some as mean values from multiple determinations
pIC50: −log10 of the molar value.
Listed here: items and their measured pIC50.
property_measured: pIC50

CO[C@@H](C)C[C@@H](C(=O)Nc1ccc(C(N)=O)cc1)n1cc2c(cc1=O)-c1cc(Cl)ccc1C[C@@H](C)O[C@H]2C (single isomer, unassigned) ... 7.52
CO[C@@H](C)C[C@@H](C(=O)Nc1ccc(C(N)=O)cc1)n1cc2c(cc1=O)-c1c(ccc(Cl)c1F)C[C@@H](C)O[C@H]2C (single isomer, unassigned) ... 6.60
C[C@@H]1Cc2ccc(Cl)cc2-c2cc(=O)n([C@@H](C[C@@H]3COCCO3)C(=O)Nc3ccc(C(N)=O)cc3)cc2CO1 (single isomer, unassigned) ... 7.06
CC[C@@H](C(=O)Nc1ccc(C(N)=O)c(F)c1)n1cc2c(cc1=O)-c1cc(Cl)ccc1C[C@@H](C(F)F)OC2 (single isomer, unassigned) ... 5.82
CO[C@H](C[C@@H](C(=O)Nc1ccc(C(N)=O)cc1)n1cc2c(cc1=O)-c1cc(Cl)ccc1C[C@@H](C)OC2)C(F)F (single isomer, unassigned) ... 6.85
C[C@@H]1Cc2ccc(Cl)cc2-c2cc(=O)n([C@@H](C[C@@H]3COCCO3)C(=O)Nc3ccc4nn(C)nc4c3)cc2CO1 (single isomer, unassigned) ... 7.38
CO[C@@H](C)C[C@@H](C(=O)Nc1ccc(C(N)=O)cc1)n1cc2c(cc1=O)-c1cc(Cl)ccc1C[C@@H](C)OC2 (single isomer, unassigned) ... 6.69
CO[C@H](C[C@@H](C(=O)Nc1ccc(C(N)=O)cc1)n1cc2c(cc1=O)-c1cc(Cl)ccc1C[C@@H](C)OC2)C1CC1 (single isomer, unassigned) ... 6.66
NC(=O)c1ccc(NC(=O)[C@H](C[C@@H]2CCCCO2)n2cc3c(cc2=O)-c2c(ccc(Cl)c2F)C[C@@H](C(F)(F)F)OC3)cc1 (single isomer, unassigned) ... 7.26
CC(C)[C@@H]1Cc2ccc(Cl)cc2-c2cc(=O)n([C@@H](C[C@@H]3COCCO3)C(=O)Nc3ccc(C(N)=O)c(F)c3)cc2CO1 (single isomer, unassigned) ... 5.80
NC(=O)c1ccc(NC(=O)[C@H](C[C@@H]2COCCO2)n2cc3c(cc2=O)-c2cc(Cl)ccc2C[C@@H](CO)OC3)cc1 (single isomer, unassigned) ... 6.49
NC(=O)c1ccc(NC(=O)[C@H](C[C@@H]2CCCCO2)n2cc3c(cc2=O)-c2cc(Cl)ccc2C[C@@H](C(F)(F)F)OC3)cc1F (single isomer, unassigned) ... 6.44
C[C@@H]1Cc2ccc(Cl)cc2-c2cc(=O)n([C@@H](C[C@@H]3CCCCO3)C(=O)Nc3ccc(C(N)=O)cc3)cc2[C@H](C)O1 (single isomer, unassigned) ... 7.57
C[C@@H]1Cc2ccc(Cl)cc2-c2cc(=O)n([C@@H](C[C@@H]3CCCCO3)C(=O)Nc3ccc(C(N)=O)c(F)c3)cc2CO1 (single isomer, unassigned) ... 6.49
NC(=O)c1ccc(NC(=O)[C@H](C[C@@H]2CCCCO2)n2cc3c(cc2=O)-c2cc(Cl)ccc2C[C@@H](CO)OC3)cc1F (single isomer, unassigned) ... 6.32
C[C@@H](C(=O)Nc1ccc(C(N)=O)cc1)n1cc2c(cc1=O)-c1c(ccc(Cl)c1F)C[C@@H](C(F)(F)F)OC2 (single isomer, unassigned) ... 6.66
CC[C@@H](C(=O)Nc1ccc(C(N)=O)c(F)c1)n1cc2c(cc1=O)-c1cc(Cl)ccc1CC(C(F)F)OC2 (mixture of isomers) ... 5.64
NC(=O)c1ccc(NC(=O)C(C[C@@H]2CCCCO2)n2cc3c(cc2=O)-c2cc(Cl)ccc2CC(C(F)(F)F)OC3)cc1F (mixture of isomers) ... 5.96
NC(=O)c1ccc(NC(=O)C(C[C@@H]2CCCCO2)n2cc3c(cc2=O)-c2cc(Cl)ccc2CC(C(F)(F)F)OC3)cn1 (mixture of isomers) ... 6.10
CC(C)C1Cc2ccc(Cl)cc2-c2cc(=O)n(C(C[C@@H]3COCCO3)C(=O)Nc3ccc(C(N)=O)c(F)c3)cc2CO1 (mixture of isomers) ... 5.32
NC(=O)c1ccc(NC(=O)C(C[C@@H]2COCCO2)n2cc3c(cc2=O)-c2cc(Cl)ccc2CC(C(F)(F)F)OC3)cc1F (mixture of isomers) ... 6.13

* * *

system_name: human factor XIa (Homo sapiens, UniProt P03951)
Sequence (P03951 388-625 limits assumed): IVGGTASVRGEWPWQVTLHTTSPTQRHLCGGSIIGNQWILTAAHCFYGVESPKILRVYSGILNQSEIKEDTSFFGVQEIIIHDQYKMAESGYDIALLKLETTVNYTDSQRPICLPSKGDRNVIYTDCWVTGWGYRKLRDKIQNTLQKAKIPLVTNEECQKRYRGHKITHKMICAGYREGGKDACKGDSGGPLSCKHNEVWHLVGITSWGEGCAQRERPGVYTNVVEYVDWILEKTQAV
Sequence (P03951 19-387 partner limits assumed): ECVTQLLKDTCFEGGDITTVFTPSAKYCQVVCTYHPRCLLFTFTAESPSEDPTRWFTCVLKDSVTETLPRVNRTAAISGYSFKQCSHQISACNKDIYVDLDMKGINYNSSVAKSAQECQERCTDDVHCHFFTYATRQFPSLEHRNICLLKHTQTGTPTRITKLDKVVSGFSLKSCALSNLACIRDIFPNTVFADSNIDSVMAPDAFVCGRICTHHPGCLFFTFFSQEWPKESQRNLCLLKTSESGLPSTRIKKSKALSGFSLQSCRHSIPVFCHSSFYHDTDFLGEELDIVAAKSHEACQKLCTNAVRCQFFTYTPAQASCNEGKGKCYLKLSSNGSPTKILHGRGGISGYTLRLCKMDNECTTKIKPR
property_measured: IC50 (nM)

C[C@@H]1Cc2ccc(Cl)cc2-c2cc(=O)n([C@@H](CCOC(C)(C)C)C(=O)Nc3ccc(C(N)=O)cc3)cc2CO1 (single isomer, unassigned) ... 5.4
NC(=O)c1ccc(NC(=O)[C@H](C[C@@H]2CCCCO2)n2cc3c(cc2=O)-c2c(ccc(Cl)c2F)C[C@@H](C(F)(F)F)OC3)cc1 (single isomer, unassigned) ... 1.1
C[C@@H]1Cc2ccc(Cl)cc2-c2cc(=O)n([C@@H](C[C@@H]3CCCCO3)C(=O)Nc3ccc(C(N)=O)nc3)cc2CO1 (single isomer, unassigned) ... 2.4
CC1Cc2ccc(Cl)cc2-c2cc(=O)n(C(CCOC(C)(C)C)C(=O)Nc3ccc(C(N)=O)cc3)cc2CO1 (mixture of isomers) ... 22
NC(=O)c1ccc(NC(=O)C(C[C@@H]2COCCO2)n2cc3c(cc2=O)-c2cc(Cl)ccc2CC(CO)OC3)cc1 (mixture of isomers) ... 12
NC(=O)c1ccc(NC(=O)C(C[C@@H]2CCCCO2)n2cc3c(cc2=O)-c2cc(Cl)ccc2CC(CO)OC3)cc1 (mixture of isomers) ... 6.9
CC(C)C1Cc2ccc(Cl)cc2-c2cc(=O)n(C(C[C@@H]3COCCO3)C(=O)Nc3ccc(C(N)=O)c(F)c3)cc2CO1 (mixture of isomers) ... 41
NC(=O)c1ccc(NC(=O)C(C[C@@H]2CCCCO2)n2cc3c(cc2=O)-c2cc(Cl)ccc2CC(C(F)(F)F)OC3)cn1 (mixture of isomers) ... 6.5
NC(=O)c1ccc(NC(=O)[C@H](C[C@@H]2CCCCO2)n2cc3c(cc2=O)-c2cc(Cl)ccc2C[C@@H](C(F)(F)F)OC3)cn1 (single isomer, unassigned) ... 2.3
CO[C@@H](C)C[C@@H](C(=O)Nc1ccc(C(N)=O)cc1)n1cc2c(cc1=O)-c1c(ccc(Cl)c1Cl)C[C@@H](C(F)(F)F)OC2 (single isomer, unassigned) ... 9.5
CO[C@@H](C)C[C@@H](C(=O)Nc1ccc(C(N)=O)cc1)n1cc2c(cc1=O)-c1c(ccc(Cl)c1F)C[C@@H](C(F)(F)F)OC2 (single isomer, unassigned) ... 1.5
CC1Cc2ccc(Cl)cc2-c2cc(=O)n(C(C[C@@H]3CCCCO3)C(=O)Nc3ccc(C(N)=O)nc3)cc2CO1 (mixture of isomers) ... 6
